tested on: Staphylococcus aureus; assay: Antibacterial activity against Staphylococcus aureus; assay type: functional
Recorded MIC for the following compounds
PROPERTY: MIC

>>> result("CN[C@@H](CC(C)C)C(=O)NCCc1c(Br)[nH]c2ccc(Br)cc12 [ALTEMATAMIDE C]")
"4 to 32 µg/mL"
>>> result("CNC1=NC(=O)[C@H]([C@H](C)c2c[nH]c3ccccc23)O1")
"0.5 µg/mL"
>>> result("CN[C@@H](CC(C)C)C(=O)NCCc1c(Br)[nH]c2cc(Br)c(Br)cc12 [ALTEMATAMIDE B]")
"4 to 32 µg/mL"
>>> result("O=c1ccc2nccc3c4ccccc4n1c23")
"8 to 64 µg/mL"
>>> result("O=c1ccc2nccc3c4cccc(O)c4n1c23")
"8 to 64 µg/mL"
>>> result("CN[C@@H](CC(C)C)C(=O)NCCc1c(Br)n(C)c2cc(Br)c(Br)cc12 [ALTEMATAMIDE A]")
"4 to 32 µg/mL"

* * *

tested on: Plasmodium falciparum; assay: Antiplasmodial activity against chloroquine-resistant Plasmodium falciparum K1 after 24 hrs by liquid scintillation counting analysis; type: functional; settings: K1, 24 h
PROPERTY: IC50

>>> result("Cn1c2c3ccccc3nc-2c(O)c2ccccc21 [HYDROXYCRYPTOLEPINE]")
"0.027 to 0.063 µg/mL"
>>> result("C[n+]1c2ccccc2cc2[n-]c3ccccc3c21.Cl [CRYPTOLEPINE HYDROCHLORIDE]")
"0.027 to 0.063 µg/mL"
>>> result("C[n+]1c2ccccc2cc2[n-]c3ccccc3c21 [CRYPTOLEPINE]")
"0.027 to 0.063 µg/mL"
>>> result("Cn1c2nc3ccccc3c-2cc2ccccc21 [NEOCRYPTOLEPINE]")
"0.027 to 0.063 µg/mL"

Hey, just so you know, these numbers are from ChEMBL document CHEMBL4020723.
